# METHOD: solvent given as SMILES
# REPORTED CONDITIONS: in C1COCCO1
PROPERTY MEASURED: emission maximum (nm)
Give bare numbers, in nm.

Take a look at these entries with their results.
{"columns": ["INPUT SMILES", "OBSERVED RESULT"],
 "data": [
  ["[C-]#[N+]c1ccc(-c2ccc(N(C)C)cc2)cc1", 397],
  ["O=C1OC(c2ccccc2)=C/C1=C\\c1ccc([N+](=O)[O-])cc1", 518],
  ["CN(C)CCNc1ccc([N+](=O)[O-])cc1[N+](=O)[O-]", 385],
  ["CN(C)c1ccc(C2=Cc3cccc[n+]3[B-](F)(F)O2)cc1", 486]
]}

Please state, for each entry, its recorded emission maximum.
1. c1ccc(-c2nc(-c3ccc(-c4ccc(N(c5ccccc5)c5ccccc5)cc4)cn3)oc2-c2ccccc2)cc1
2. CCC(C)(C)c1ccc(-c2ccc(-c3ccc(C(C)(C)CC)cc3)cc2)cc1
3. O=C1c2ccc3c4ccc5c6c(ccc(c7ccc(c2c37)C(=O)N1c1ccncc1)c64)C(=O)N(c1ccncc1)C5=O

1: 454; 2: 354; 3: 572
